system: MDA-N; assay: NCI tumour cell line growth inhibition, 48 h
Active and inactive are the calls of the source. No stated cut-off is given here; in the data, active = GI50 up to about 1.1 µM and inactive = higher.
Labels: active, inactive

MOLECULE	LABEL
C/C(=N\Nc1nc2ccccc2[nH]1)c1ncccn1	active
CC1=C(N2CC2)C(=O)c2nc3n(c2C1=O)CCC3OC(=O)CCl (centres undefined)	active
CN(C)CCCN1C(=S)N(CCCN(C)C)c2c3ccccc3nc3c([N+](=O)[O-])ccc1c23	inactive
C/C1=C\[C@H](C)C[C@H](C)OC(=O)C[C@H](c2ccc(O)cc2)NC(=O)[C@H](Cc2ccc(O)c(I)c2)N(C)C(=O)[C@H](C)NC(=O)[C@@H](C)C1	active
Cc1ccc2c(O)cc(-c3ccsc3)nc2n1	active
Nc1ncc(CN2CCOCC2)c(-c2ccccc2O)n1	inactive
CC(C)(C)[Si](C)(C)OCC1OC(n2ccc(=O)[nH]c2=O)C(O[Si](C)(C)C(C)(C)C)[C@@]12O[C@H]2C(N)=O (some centres undefined)	inactive
COc1cc2c(cc1OC)C1Cc3cc(OC)c(OC)cc3C(C2)N1C	inactive
O=C1c2ccccc2C(=O)N1CC(O)COc1cccc2ccccc12 (centres undefined)	inactive
